target: MKK4 (Homo sapiens, UniProt P45985); construct: S84/D399; host or cells: HEK-293; experiment: KINOMEscan competition binding assay, MKK4 potency; conditions: concentration of 100 nM
parameter: MKK4, residual percent of control binding (PoC)

compound | value_measured
CCCS(=O)(=O)Nc1ccc(F)c(C(=O)c2n[nH]c3ncc(-c4ccc(S(C)(=O)=O)cc4)cc23)c1F | ++ (1 ≤ PoC < 10)
CCCS(=O)(=O)Nc1ccc(F)c(C(=O)c2n[nH]c3ncc(-c4ccc(S(N)(=O)=O)cc4)cc23)c1F | +++ (PoC < 1)
CCCS(=O)(=O)Nc1ccc(F)c(C(=O)c2n[nH]c3ncc(-c4ccc(OC)cc4)cc23)c1F | ++ (1 ≤ PoC < 10)
CCCS(=O)(=O)Nc1ccc(F)c(NC(=O)c2n[nH]c3ncc(-c4ccc(Cl)cc4)cc23)c1F | O (PoC ≥ 30)
CCCS(=O)(=O)Nc1ccc(F)c(C(=O)c2n[nH]c3ncc(-c4ccc(N(C)C)cc4)cc23)c1F | ++ (1 ≤ PoC < 10)
CCCS(=O)(=O)Nc1ccc(F)c(C(=O)c2n[nH]c3ncc(-c4ccc(C)cc4)cc23)c1F | ++ (1 ≤ PoC < 10)
CCCS(=O)(=O)Nc1ccc(F)c(C(=O)c2n[nH]c3ncc(-c4cccc(N(C)C)c4)cc23)c1F | + (10 ≤ PoC < 30)
CCCS(=O)(=O)Nc1c(F)ccc(C(=O)c2n[nH]c3ncc(-c4ccc(C(=O)O)cc4)cc23)c1F | +++ (PoC < 1)
CCCS(=O)(=O)Nc1ccc(F)c(C(=O)c2n[nH]c3ncc(-c4cccc([N+](=O)[O-])c4)cc23)c1F | + (10 ≤ PoC < 30)
CCCS(=O)(=O)Nc1ccc(F)c(C(=O)c2n[nH]c3ncc(-c4ccc(C)c(C)c4)cc23)c1F | + (10 ≤ PoC < 30)
CCCS(=O)(=O)Nc1ccc(F)c(C(=O)c2n[nH]c3ncc(-c4ccc(C(F)(F)F)cc4)cc23)c1F | + (10 ≤ PoC < 30)
CCCS(=O)(=O)Nc1ccc(F)c(C(=O)c2n[nH]c3ncc(-c4ccc(C(N)=O)cc4)cc23)c1F [Example 51f] | +++ (PoC < 1)
CCCS(=O)(=O)Nc1ccc(F)c(Sc2n[nH]c3ncc(-c4ccc(Cl)cc4)cc23)c1F | O (PoC ≥ 30)
CCCS(=O)(=O)Nc1ccc(F)c([S+]([O-])c2n[nH]c3ncc(-c4ccc(Cl)cc4)cc23)c1F (stereo not drawn) | O (PoC ≥ 30)
CCCS(=O)(=O)Nc1ccc(F)c(C(=O)c2n[nH]c3ncc(-c4cccc(N)c4)cc23)c1F | ++ (1 ≤ PoC < 10)
CCCS(=O)(=O)Nc1ccc(F)c(C(=O)c2n[nH]c3ncc(-c4ccc(Cl)c(C(F)(F)F)c4)cc23)c1F | + (10 ≤ PoC < 30)
CCCS(=O)(=O)Nc1ccc(F)c(C(=O)c2n[nH]c3ncc(-c4ccccc4F)cc23)c1F | ++ (1 ≤ PoC < 10)
O=C(c1ccc(F)c(NS(=O)(=O)Cc2ccccc2)c1F)c1n[nH]c2ncc(-c3ccncc3)cc12 | +++ (PoC < 1)
CCCS(=O)(=O)Nc1ccc(F)c(C(=O)c2n[nH]c3ncc(-c4ccccc4N)cc23)c1F | + (10 ≤ PoC < 30)
CCCCS(=O)(=O)Nc1cccc(C(=O)c2n[nH]c3ncc(-c4ccc5c(c4)OCCO5)cc23)c1F | + (10 ≤ PoC < 30)
CCCS(=O)(=O)Nc1ccc(F)c(C(=O)c2n[nH]c3ncc(-c4ccccc4OC)cc23)c1F | ++ (1 ≤ PoC < 10)

----------
This listing pairs molecules with measured pIC50.
Biological target: MKK4-MEKK2 mix (Homo sapiens)
Construct: MEKK2, recombinant, active: ProQinase product #0583-0000-1
Sequence (P45985 2-399): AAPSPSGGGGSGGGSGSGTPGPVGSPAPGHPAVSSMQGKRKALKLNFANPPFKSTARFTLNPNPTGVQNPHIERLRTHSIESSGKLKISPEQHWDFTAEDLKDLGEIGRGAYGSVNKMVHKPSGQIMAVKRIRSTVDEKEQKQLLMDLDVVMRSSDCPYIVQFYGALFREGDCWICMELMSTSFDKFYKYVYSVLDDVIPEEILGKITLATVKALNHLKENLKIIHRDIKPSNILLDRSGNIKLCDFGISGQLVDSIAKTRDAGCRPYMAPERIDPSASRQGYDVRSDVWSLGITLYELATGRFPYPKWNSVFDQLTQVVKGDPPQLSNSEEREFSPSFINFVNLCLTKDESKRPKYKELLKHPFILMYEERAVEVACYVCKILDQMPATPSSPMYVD
Assay: Radiometric protein kinase assay, MEKK2 dependent MKK4 activation (cascade)
Conditions: substrate JNK1 KRKR, ATP 0.2 μM, read-out: Cascade, potency derived from IC50-values
pIC50: −log10 of the molar value.

molecule | tested_on | pIC50
CCCS(=O)(=O)Nc1ccc(F)c(C(=O)c2n[nH]c3ncc(-c4ccccc4OC)cc23)c1F | MKK4-MEKK2 mix (Homo sapiens) | 5.00 to 6.00
CCCS(=O)(=O)Nc1ccc(F)c(C(=O)c2n[nH]c3ncc(-c4ccccc4C)cc23)c1F | MKK4-MEKK2 mix (Homo sapiens) | 5.00 to 6.00
CCCS(=O)(=O)Nc1ccc(F)c(C(=O)c2n[nH]c3ncc(-c4ccccc4Cl)cc23)c1F | MKK4-MEKK2 mix (Homo sapiens) | 5.00 to 6.00
CCCS(=O)(=O)Nc1ccc(F)c(C(=O)c2n[nH]c3ncc(-c4cccc([N+](=O)[O-])c4)cc23)c1F | MKK4-MEKK2 mix (Homo sapiens) | 5.00 to 6.00
CCCS(=O)(=O)Nc1c(F)ccc(C(=O)c2n[nH]c3ncc(-c4ccc(S(N)(=O)=O)cc4)cc23)c1F | MKK4-MEKK2 mix (Homo sapiens) | > 6.30
CCCS(=O)(=O)Nc1ccc(F)c(C(=O)c2n[nH]c3ncc(-c4cccc(O)c4)cc23)c1F | MKK4-MEKK2 mix (Homo sapiens) | 6.00 to 6.30
CCCS(=O)(=O)Nc1ccc(F)c(C(=O)c2n[nH]c3ncc(-c4ccccc4O)cc23)c1F | MKK4-MEKK2 mix (Homo sapiens) | 5.00 to 6.00
CCCS(=O)(=O)Nc1ccc(F)c(C(=O)c2n[nH]c3ncc(-c4ccc(S(N)(=O)=O)cc4)cc23)c1F | MKK4-MEKK2 mix (Homo sapiens) | 5.00 to 6.00
CCCS(=O)(=O)Nc1ccc(F)c(C(=O)c2n[nH]c3ncc(-c4ccc(C(N)=O)cc4)cc23)c1F [Example 51f] | MKK4-MEKK2 mix (Homo sapiens) | 5.00 to 6.00
CCCS(=O)(=O)Nc1ccc(F)c(C(=O)c2n[nH]c3ncc(-c4ccccc4F)cc23)c1F | MKK4-MEKK2 mix (Homo sapiens) | 5.00 to 6.00
CCCS(=O)(=O)Nc1ccc(F)c(C(=O)c2n[nH]c3ncc(-c4ccccc4)cc23)c1F | MKK4-MEKK2 mix (Homo sapiens) | 5.00 to 6.00
CCCS(=O)(=O)Nc1ccc(F)c(C(=O)c2n[nH]c3ncc(-c4ccc(C(=O)O)cc4)cc23)c1F [Example 51d] | MKK4-MEKK2 mix (Homo sapiens) | > 6.30
CCCS(=O)(=O)Nc1ccc(F)c(C(=O)c2n[nH]c3ncc(-c4ccc(S(=O)(=O)NC(C)=O)cc4)cc23)c1F [Example 51k] | MKK4-MEKK2 mix (Homo sapiens) | > 6.30
CCCS(=O)(=O)Nc1ccc(F)c(C(=O)c2n[nH]c3ncc(-c4ccc([N+](=O)[O-])cc4)cc23)c1F | MKK4-MEKK2 mix (Homo sapiens) | < 5.00
CCCS(=O)(=O)Nc1ccc(F)c(C(=O)c2n[nH]c3ncc(-c4ccc(-c5nnn[nH]5)cc4)cc23)c1F [Example 51e] | MKK4-MEKK2 mix (Homo sapiens) | > 6.30
CCCS(=O)(=O)Nc1ccc(F)c(C(=O)c2n[nH]c3ncc(-c4ccc(C(=O)NCC(O)CO)cc4)cc23)c1F (stereo not shown) [Example 51l] | MKK4-MEKK2 mix (Homo sapiens) | 5.00 to 6.00
CCCS(=O)(=O)Nc1ccc(F)c(C(=O)c2n[nH]c3ncc(-c4ccc(N(C)C)cc4)cc23)c1F | MKK4-MEKK2 mix (Homo sapiens) | < 5.00
CCCS(=O)(=O)Nc1ccc(F)c(C(=O)c2n[nH]c3ncc(-c4ccc(N)cc4)cc23)c1F | MKK4-MEKK2 mix (Homo sapiens) | 6.00 to 6.30
CCCS(=O)(=O)Nc1ccc(F)c(C(=O)c2n[nH]c3ncc(-c4ccc(O)cc4)cc23)c1F | MKK4-MEKK2 mix (Homo sapiens) | 5.00 to 6.00

----------
Biological target: MKK4 active (Homo sapiens)
Sequence (P45985 1-399): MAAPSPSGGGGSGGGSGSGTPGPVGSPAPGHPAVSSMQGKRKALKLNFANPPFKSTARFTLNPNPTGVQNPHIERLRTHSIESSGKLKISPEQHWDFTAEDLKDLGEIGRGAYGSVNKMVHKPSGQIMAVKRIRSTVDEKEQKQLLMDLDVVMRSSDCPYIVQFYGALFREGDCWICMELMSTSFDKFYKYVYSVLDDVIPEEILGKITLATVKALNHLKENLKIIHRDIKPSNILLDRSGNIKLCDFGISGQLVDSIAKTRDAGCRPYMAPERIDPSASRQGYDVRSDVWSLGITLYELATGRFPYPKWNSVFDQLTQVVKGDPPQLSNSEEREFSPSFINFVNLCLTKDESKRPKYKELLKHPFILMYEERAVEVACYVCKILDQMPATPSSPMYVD
pIC50: −log10 of the molar value.

compound | pIC50
CCCS(=O)(=O)Nc1ccc(F)c(C(=O)c2n[nH]c3ncc(-c4ccc(S(=O)(=O)NCC(O)CO)cc4)cc23)c1F (stereo not shown) [Example 51j] | > 6.30
CCCS(=O)(=O)Nc1ccc(F)c(C(=O)c2n[nH]c3ncc(-c4cccc(OC)c4)cc23)c1F | 5.00 to 6.00
CCCS(=O)(=O)Nc1c(F)ccc(C(=O)c2n[nH]c3ncc(-c4ccc(C(=O)O)cc4)cc23)c1F | > 6.30
CCCS(=O)(=O)Nc1ccc(F)c(C(=O)c2n[nH]c3ncc(-c4ccc(N(C)C)cc4)cc23)c1F | 5.00 to 6.00
CCCS(=O)(=O)Nc1ccc(F)c(C(=O)c2n[nH]c3ncc(-c4ccc(C(=O)O)cc4)cc23)c1F [Example 51d] | > 6.30
CCCS(=O)(=O)Nc1ccc(F)c(C(=O)c2n[nH]c3ncc(-c4ccc([N+](=O)[O-])cc4)cc23)c1F | < 5.00
CCCS(=O)(=O)Nc1ccc(F)c(C(=O)c2n[nH]c3ncc(-c4ccc(S(N)(=O)=O)cc4F)cc23)c1F [Example 51m] | > 6.30
CS(=O)(=O)Nc1c(F)ccc(C(=O)c2n[nH]c3ncc(-c4ccc(S(N)(=O)=O)cc4)cc23)c1F [Example 54c] | > 6.30
CCCS(=O)(=O)Nc1ccc(F)c(C(=O)c2n[nH]c3ncc(-c4cccc([N+](=O)[O-])c4)cc23)c1F | 6.00 to 6.30
CCCS(=O)(=O)Nc1c(F)ccc(C(=O)c2n[nH]c3ncc(-c4ccc(S(N)(=O)=O)cc4)cc23)c1F | > 6.30
